- STUDY SYSTEM: FleA (AFL, Aspergillus fumigatus lectin) (Aspergillus fumigatus, UniProt Q4WW81)
- Construct: about 34 kDa; no canonical signal peptide
- Sequence (Q4WW81 whole entry): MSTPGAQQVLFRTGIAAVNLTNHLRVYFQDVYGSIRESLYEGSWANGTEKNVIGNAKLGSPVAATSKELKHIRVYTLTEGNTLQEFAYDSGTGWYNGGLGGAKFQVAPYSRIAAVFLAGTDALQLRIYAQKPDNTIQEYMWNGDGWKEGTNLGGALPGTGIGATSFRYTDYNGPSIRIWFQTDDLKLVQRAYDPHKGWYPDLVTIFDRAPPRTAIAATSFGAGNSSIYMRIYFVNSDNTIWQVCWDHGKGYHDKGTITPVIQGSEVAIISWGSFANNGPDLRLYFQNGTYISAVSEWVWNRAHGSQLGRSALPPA
- METHOD: competition plate assay: biotinylated FleA binding to immobilised human airway mucin
- PARTICULARS: 10 mM CaCl2, TBS-Tween; inhibition of FleA-mucin binding
MEASUREMENT NAME: IC50 (µM)
# unit: µM | format: bare number

C[C@@H]1OC(O)[C@@H](O)[C@H](O)[C@@H]1O (stereo partly shown) yielded IC50 of 801

###

- STUDY SYSTEM: PA-IIL (PAIIL) (Pseudomonas aeruginosa)
- Sequence (Q9HYN5 entry or part of it): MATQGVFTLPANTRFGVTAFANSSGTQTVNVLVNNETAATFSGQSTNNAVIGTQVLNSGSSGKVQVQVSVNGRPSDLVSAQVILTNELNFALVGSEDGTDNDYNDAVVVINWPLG
- METHOD: competition assay: PA-IIL binding to human airway mucin
MEASUREMENT NAME: pIC50
Field pIC50 (float): negative decimal logarithm of the concentration in molar.

// pIC50 value for CCC/C=C/CO[C@@H]1O[C@@H](C)[C@@H](O)[C@@H](O)[C@@H]1O [(2E)-hexenyl α-L-fucopyranoside] : 5.80
